molecular target: human TREM2 (Homo sapiens, UniProt Q9NZC2); construct: expressed in transfected cells; host or cells: HEK293T; test: TREM2 agonist potency by cellular phosphorylation of Syk (AlphaLisa) in HEK293T-hTREM2 cells; type: cell-based; details: HEK293 cells expressing human TREM2 and DAP12, Table D
Sequence (Q9NZC2 19-230): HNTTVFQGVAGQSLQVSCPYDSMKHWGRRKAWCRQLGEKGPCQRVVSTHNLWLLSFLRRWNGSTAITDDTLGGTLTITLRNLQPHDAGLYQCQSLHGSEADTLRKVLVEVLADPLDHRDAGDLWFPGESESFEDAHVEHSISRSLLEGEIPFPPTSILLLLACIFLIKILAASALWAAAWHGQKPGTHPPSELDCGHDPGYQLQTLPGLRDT
Sequence (O43914 22-113 partner): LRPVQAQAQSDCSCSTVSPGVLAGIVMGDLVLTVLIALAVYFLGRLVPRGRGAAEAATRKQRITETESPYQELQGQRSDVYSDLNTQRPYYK
Measured Endpoint: EC50

# count of solved cases: 5
Input line: Hello, please tell me recorded EC50 for this one: Cc1cc2c(-c3ccc(Cl)cc3F)nc([C@@H]3CCO[C@@H](c4cnn(C5CC5)c4)C3)nc2nc1C
Output line: < 50 nM

Input line: Hello, please tell me recorded EC50 for this one: [2H]C1([2H])C[C@H](c2nc(-c3ccc(F)cc3F)c3nc(C)c(C)nc3n2)C[C@H](c2cnn(C3CC3)c2)O1
Output line: 50 to 500 nM

Input line: Hello, please tell me recorded EC50 for this one: Cc1nc2nc(N3CCO[C@H](c4cnn(C5CC5)c4)C3)nc(-c3ccc4c(c3)CC4)c2nc1C
Output line: < 50 nM

Input line: Hello, please tell me recorded EC50 for this one: Cc1nc2nc(N3CCO[C@@H](c4cnn(C5CC5)c4)C3)nc(-c3ccc4c(c3)CC4)c2nc1C
Output line: 50 to 500 nM

Input line: Hello, please tell me recorded EC50 for this one: Cc1cc2c(-c3ccc(Cl)cc3F)cc([C@H]3CCO[C@@H](c4cnn(C5CC5)c4)C3)nc2nc1C
Output line: < 50 nM

New cases:
Input line: Hello, please tell me recorded EC50 for this one: Cc1nc2nc(N3CCN(C)[C@@H](c4cnn(C5CC5)c4)C3)nc(-c3ccc(Cl)cc3F)c2nc1C
Output line: 50 to 500 nM

Input line: Hello, please tell me recorded EC50 for this one: [2H]C([2H])([2H])c1nc2nc([C@H]3CCO[C@@H](c4cnn(C([2H])([2H])[2H])c4)C3)nc(-c3ccc(C)cc3)c2nc1C([2H])([2H])[2H]
Output line: 50 to 500 nM

Input line: Hello, please tell me recorded EC50 for this one: Cc1nc2nc([C@@H]3CCO[C@H](c4cccc(=O)n4C)C3)nc(-c3ccc(F)cc3F)c2nc1C
Output line: 500 to 3000 nM

Input line: Hello, please tell me recorded EC50 for this one: [2H]C([2H])([2H])c1ccc(-c2nc([C@H]3CCO[C@@H](c4cnn(C([2H])([2H])[2H])c4)C3)nc3nc(C([2H])([2H])[2H])c(C([2H])([2H])[2H])nc23)cc1
Output line: 50 to 500 nM

Input line: Hello, please tell me recorded EC50 for this one: Cc1ccc2c(-c3ccc(Cl)c(F)c3F)nc([C@H]3CCO[C@@H](c4cnn(C5CC5)c4)C3)nc2n1
Output line: < 50 nM

* * *

Here the recorded pEC50 is given for each entry.
biological target: human TREM2 (Homo sapiens, UniProt Q9NZC2); construct: expressed in transfected cells; host or cells: HEK293T; assay: TREM2 agonist potency by cellular phosphorylation of Syk (AlphaLisa) in HEK293T-hTREM2 cells; assay type: cell-based; settings: HEK293 cells expressing human TREM2 and DAP12, Table D-2
pEC50: −log10 of the molar value.

# count of solved cases: 5
Input line: State the measured pEC50 (human TREM2 (Homo sapiens, UniProt Q9NZC2)) of Cc1nc2nc([C@H]3CCO[C@H](c4cnc(C5CC5)o4)C3)nc(-c3ccc(F)cc3F)c2nc1C [Example I-1698]
Output line: 6.30 to 7.30

Input line: State the measured pEC50 (human TREM2 (Homo sapiens, UniProt Q9NZC2)) of Cc1nc2nc([C@H]3CCO[C@@H](c4cnn(C5CC5)c4)C3)nc(-c3ccc(C(F)(F)F)c(F)c3F)c2nc1C (stereo in doubt) [Example I-1588]
Output line: > 7.30

Input line: State the measured pEC50 (human TREM2 (Homo sapiens, UniProt Q9NZC2)) of Cc1nc2c(-c3ccc(Cl)cc3F)nc([C@H]3CCO[C@@H](c4cnn(C5CC5)c4)C3)nc2nc1CC(F)F [Example I-1477]
Output line: 6.30 to 7.30

Input line: State the measured pEC50 (human TREM2 (Homo sapiens, UniProt Q9NZC2)) of Cc1nc2nc(N3CCO[C@H](c4cnn5c4CCC5)C3)nc(-c3ccc(F)cc3F)c2nc1C [Example I-1529]
Output line: 6.30 to 7.30

Input line: State the measured pEC50 (human TREM2 (Homo sapiens, UniProt Q9NZC2)) of Cc1nc2nc([C@H]3CCO[C@@H](c4cnn(C5CC5)c4)C3)nc(-c3ccc(OC(F)(F)F)cc3F)c2nc1C [Example I-1313]
Output line: 6.30 to 7.30

New cases:
Input line: State the measured pEC50 (human TREM2 (Homo sapiens, UniProt Q9NZC2)) of Cc1nc2nc(C3CCO[C@@H](c4cnn(C5CC5)c4)C3)nc(-c3cc(C(F)(F)F)c(F)cc3F)c2nc1C (some centres unmarked) [Example I-1585]
Output line: > 7.30

Input line: State the measured pEC50 (human TREM2 (Homo sapiens, UniProt Q9NZC2)) of Cc1cc2c(C3CCC(C(F)F)CC3)nc(N3C[C@@H](C)O[C@@H](c4cnn(C5CC5)c4)C3)nc2nc1C (some centres unmarked) [Example I-1328]
Output line: > 7.30

Input line: State the measured pEC50 (human TREM2 (Homo sapiens, UniProt Q9NZC2)) of Cc1nc2nc([C@H]3CCO[C@@H](c4cnn(C5CC5)c4)C3)nc(-c3c(F)cc(C(F)(F)F)cc3F)c2nc1C (stereo in doubt) [Example I-1391]
Output line: > 7.30

Input line: State the measured pEC50 (human TREM2 (Homo sapiens, UniProt Q9NZC2)) of Cc1nc2nc([C@H]3CCO[C@@H](c4cnn(C5CC5)c4)C3)nc(-c3ccc(F)cc3F)c2nc1C(F)F [Example I-1323]
Output line: > 7.30

Input line: State the measured pEC50 (human TREM2 (Homo sapiens, UniProt Q9NZC2)) of Cc1nc2nc(N3C[C@@H](c4cnn(C5CC5)c4)O[C@@H](C(F)F)C3)nc(-c3ccc(F)cc3F)c2nc1C (single isomer, unassigned) [Example I-1524]
Output line: > 7.30

Input line: State the measured pEC50 (human TREM2 (Homo sapiens, UniProt Q9NZC2)) of COC1(c2nc(-c3ccc(Cl)cc3F)c3nc(C)c(C)nc3n2)CCO[C@@H](c2cnn(C3CC3)c2)C1 (some centres unmarked) [Example I-1210]
Output line: 5.52 to 6.30

* * *

biological target: human TREM2 (Homo sapiens, UniProt Q9NZC2); construct: expressed in transfected cells; host or cells: HEK293T; test: TREM2 agonist potency by cellular phosphorylation of Syk (AlphaLisa) in HEK293T-hTREM2 cells; assay type: cell-based; settings: HEK293 cells expressing human TREM2 and DAP12, Table D
pEC50: −log10 of the molar value.
Measured Endpoint: pEC50

# count of solved cases: 3
Input line: State the measured pEC50 (human TREM2 (Homo sapiens, UniProt Q9NZC2)) of Cc1cc([C@H]2C[C@@H](c3cc(-c4ccc(Cl)c(F)c4F)c4cc(C)c(C)nc4n3)CCO2)ccn1 [Example 186]
Output line: 5.52 to 6.30

Input line: State the measured pEC50 (human TREM2 (Homo sapiens, UniProt Q9NZC2)) of Cc1cc2nc([C@H]3CCO[C@@H](c4cnn(C5CC5)c4)C3)nc(-c3ccc(Cl)cc3F)c2nc1C [Example 222]
Output line: 5.52 to 6.30

Input line: State the measured pEC50 (human TREM2 (Homo sapiens, UniProt Q9NZC2)) of Cc1cc([C@@H]2C[C@H](c3cc4nc(C)c(C)cc4c(-c4ccc(Cl)cc4F)n3)CCO2)ccn1 [Example 225]
Output line: 5.52 to 6.30

New cases:
Input line: State the measured pEC50 (human TREM2 (Homo sapiens, UniProt Q9NZC2)) of Cc1nc2nc(N3CCO[C@@H](c4cc[nH]c(=O)c4)C3)nc(C34CC(C(F)(F)F)(C3)C4)c2nc1C [Example 198]
Output line: > 7.30

Input line: State the measured pEC50 (human TREM2 (Homo sapiens, UniProt Q9NZC2)) of Cc1ccc2c(-c3cc(F)c(Cl)cc3F)nc([C@H]3CCO[C@@H](c4cnn(C5CC5)c4)C3)nc2n1 [Example 219]
Output line: > 7.30

Input line: State the measured pEC50 (human TREM2 (Homo sapiens, UniProt Q9NZC2)) of COc1ccc([C@@H]2C[C@H](c3nc(-c4ccc(F)cc4F)c4nc(C)c(C)nc4n3)CCO2)cn1 [Example 162]
Output line: 6.30 to 7.30

Input line: State the measured pEC50 (human TREM2 (Homo sapiens, UniProt Q9NZC2)) of COc1cccc([C@@H]2C[C@H](c3nc(-c4ccc(F)cc4F)c4nc(C)c(C)nc4n3)CCO2)n1 [Example 164]
Output line: 5.52 to 6.30
